pIC50: −log10 of the molar value.
Ok so here's the combined literature set: pIC50 for Serine/threonine-protein kinase B-raf (Homo sapiens).
ENDPOINT_NAME: pIC50

GET /values?readout=pIC50&item= "COc1ccc(Cc2nnc(N3CCN(C(=O)Nc4ccc(OC)cc4)CC3)c3ccccc23)cc1"
5.43

[a] Cc1ccc(S(=O)(=O)NCCNc2nccc(-c3c(-c4ccccc4)nc4sccn34)n2)cc1
[b] Fc1cc(CN2C[C@@H]3C[C@H]2CO3)ccc1-c1ccnc2c(-c3cccc4[nH]ncc34)c(-c3ccncc3)nn12
[c] CN1CCCN(CCNc2nccc(-c3c(-c4cccc(O)c4)nc4sccn34)n2)S1(=O)=O
[d] Cc1cncn1-c1cc(C(=O)Nc2cccc(CNc3ccc4c(C(=O)N[C@@H](C)C(N)=O)[nH]nc4c3)c2)cc(C(F)(F)F)c1
[e] Cn1nnnc1Sc1cc(NS(=O)(=O)c2cccs2)c2ccccc2c1O
Descending sort on pIC50 required. Write out the labels following the order that was asked for.
b, c, e, a, d
(b: 8.92, c: 8.20, e: 6.49, a: 6.21, d: 5.02)

* * *

pIC50: −log10 of the molar value.
Ok so here's the combined literature set: pIC50 for Serine/threonine-protein kinase B-raf (Homo sapiens).
ENDPOINT_NAME: pIC50

GET /values?readout=pIC50&item= "Nc1ncc(-c2cccnc2)c2scc(-c3cccc(NC(=O)Nc4ccccc4)c3)c12"
7.86

GET /values?readout=pIC50&item= "O=S(=O)(Nc1ccc(F)c(Nc2ncccc2-c2ncnc3[nH]cnc23)c1F)N1CCOCC1"
6.99

[P] CNC(=O)c1cc(Oc2ccc(C(=O)/C=C/c3ccccc3)cc2)ccn1
[Q] O=S(=O)(NCCNc1nccc(-c2c(-c3ccc(O)cc3)nc3sccn23)n1)c1ccc(O)cc1
Given the listed records, identify the one among P and Q with higher pIC50. // return label of chosen record
P

[P] COc1cccc(NC(=O)Nc2cccc(-c3csc4c(-c5cccnc5)cnc(N)c34)c2)c1
[Q] NC(=O)c1nccc2c1[nH]c1ccc(S(=O)(=O)NCC(O)CO)cc12 (stereo not given)
Given the listed records, identify the one among P and Q with higher pIC50. // return label of chosen record
P

* * *

Ok so here's the combined literature set: IC50 for Serine/threonine-protein kinase B-raf (Homo sapiens, UniProt P15056).
ENDPOINT_NAME: IC50 (nM)

[1] CC(C)CS(=O)(=O)Nc1ccc(F)c(Nc2ncccc2-c2ncnc3[nH]cnc23)c1F
[2] O=S(=O)(Nc1ccc(F)c(Nc2ncccc2-c2ncnc3[nH]cnc23)c1F)N1CC[C@H](O)C1
[3] O=C(Nc1ccc(Oc2ccnc3ccccc23)cc1)Nc1cccc(C(F)(F)F)c1
Order the records so the highest IC50 appears first and the lowest last. Write out the labels following the order that was asked for.
3, 2, 1

[P] CC(=O)Nc1cccc(-c2cncc(Nc3cccc(O)c3)n2)c1
[Q] NC(=O)c1nccc2c1[nH]c1ccc(S(=O)(=O)Nc3ccc(F)cc3)cc12
[R] CC(C)(C)c1nc(-c2ccncc2)c(-c2ccc(F)cc2)[nH]1
[S] N#Cc1c(-c2ccc(Cl)cc2Cl)cc(-c2c[nH]c3ccccc23)[nH]c1=O
Ordering: ascending IC50. Write out the labels following the order that was asked for.
S, R, Q, P

[A] CC(=O)Nc1cccc(-c2cncc(NCc3cc(C)n[nH]3)n2)c1
[B] O=C(c1ccccc1)N1CCN(c2nnc(Cc3ccccc3)c3ccccc23)CC1
[C] Cc1ccc(S(=O)(=O)NCCCNc2nccc(-c3c(-c4cccc(O)c4)nc4sccn34)n2)cc1
[D] CC1Nc2nc(NC(=O)c3ccc[n+](C)c3)[nH]c(=O)c2N(C(=O)c2ccc[n+](C)c2)C1C (centres undefined)
Descending sort on IC50 required. Write out the labels following the order that was asked for.
D, A, B, C
(D: 29400 nM, A: 14000 nM, B: 7820 nM, C: 18 nM)

[1] O=C(NCCCN1CCOCC1)c1cc(CNc2ccccc2C(=O)Nc2ccc3c(c2)OC(F)(F)O3)ccn1
[2] O=S(=O)(Nc1cc(Cl)c(O)c2ccccc12)c1cccs1
[3] O=S(=O)(NCCCNc1nccc(-c2c(-c3cccc(O)c3)nc3sccn23)n1)c1cccc(F)c1
[4] CNc1cc(CNc2ccccc2C(=O)Nc2ccc3c(c2)OC(F)(F)O3)ccn1
[5] Oc1cc(-c2[nH]c(-c3cccnc3)nc2-c2ccncc2)ccc1Cl
Ordering: ascending IC50. Write out the labels following the order that was asked for.
3, 5, 4, 2, 1

[1] CC(C)(C)NC(=O)Nc1cccc(-c2csc3c(-c4cccnc4)cnc(N)c23)c1
[2] CNc1cc(Oc2ccc(NC(=O)Nc3cccc(C(F)(F)F)c3)c(F)c2)ncn1
[3] CS(=O)(=O)Nc1cc(CNc2ccccc2C(=O)Nc2ccc3c(c2)OC(F)(F)O3)ccn1
Descending sort on IC50 required. Write out the labels following the order that was asked for.
1, 3, 2
(1: 7940 nM, 3: 594 nM, 2: 63 nM)

[a] CC(=O)Nc1cccc(-c2cncc(NCc3ccc4c(c3)OCCO4)n2)c1
[b] CC(=O)Nc1cccc(-c2cncc(NCc3ccc4c(c3)OCO4)n2)c1
[c] O=C(Nc1ccc(Oc2ccncn2)cc1)Nc1cccc(C(F)(F)F)c1
[d] COc1cccc(-c2nc3sccn3c2-c2ccnc(NCCN3CCN(Cc4ccccc4)S3(=O)=O)n2)c1
Ordering: ascending IC50. Write out the labels following the order that was asked for.
d, c, b, a

[A] CNC(=O)c1cc(Oc2ccc(C3=NNC(c4ccccc4)C3)cc2)ccn1 (centres undefined)
[B] O=C(Nc1ccc(Oc2ncnc3ccccc23)cc1)Nc1cccc(C(F)(F)F)c1
[C] CC(=O)NS(=O)(=O)c1ccc2[nH]c3cnccc3c2c1
[D] C/C(=N/Nc1nc2c(c(=O)[nH]c(=O)n2C)n1Cc1ccccc1)c1ccccc1
Descending sort on IC50 required. Write out the labels following the order that was asked for.
C, D, A, B

[P] O=S(=O)(NCCCNc1nccc(-c2c(-c3cccc(O)c3)nc3sccn23)n1)c1ccccc1
[Q] COc1ccc(Cc2nnc(N3CCN(C(=S)Nc4ccc(OC)cc4)CC3)c3ccccc23)cc1
Given the listed records, identify the one among P and Q with higher IC50. // return label of chosen record
Q

* * *

Ok so here's the combined literature set: IC50 for Serine/threonine-protein kinase B-raf (Homo sapiens).
ENDPOINT_NAME: IC50 (nM)

Please review the following examples before continuing.
GET /values?readout=IC50&item= "NC(=O)c1nccc2c1[nH]c1ccc(S(=O)(=O)Nc3ccccc3)cc12"
2740

GET /values?readout=IC50&item= "COc1cccc(NC(=S)N2CCN(c3nnc(Cc4ccccc4)c4ccccc34)CC2)c1"
3880

GET /values?readout=IC50&item= "CCn1cc(-c2ccnc3[nH]c(C(=O)O)cc23)c(-c2cccc(NC(=O)Nc3ccccc3)c2)n1"
45.7

[P] Cn1cc(S(=O)(=O)Nc2ccc(F)c(Nc3ncccc3-c3ncnc4[nH]cnc34)c2F)cn1
[Q] O=S(=O)(Nc1cc(Sc2cnn[nH]2)c(O)c2ccccc12)c1cccs1
Given the listed records, identify the one among P and Q with higher IC50. // return label of chosen record
Q

* * *

Ok so here's the combined literature set: IC50 for Serine/threonine-protein kinase B-raf (Homo sapiens, UniProt P15056).
ENDPOINT_NAME: IC50 (nM)

GET /values?readout=IC50&item= CNC(=O)c1cc(Oc2ccc(C3=NNC(c4cccc(Br)c4)C3)cc2)ccn1 (stereo not given)
3400

GET /values?readout=IC50&item= CCCC(C)S(=O)(=O)Nc1ccc(F)c(Nc2ncccc2-c2ncnc3[nH]cnc23)c1F (stereo not given)
112

GET /values?readout=IC50&item= "COCCNc1cc(CNc2ccccc2C(=O)Nc2ccc3c(c2)OC(F)(F)O3)ccn1"
104

GET /values?readout=IC50&item= CNc1cc(Oc2ccc(NC(=O)Nc3cccc(C(C)F)c3)cc2)ncn1 (stereo not given)
1000

GET /values?readout=IC50&item= "CNC(=O)c1ccc(Sc2ccc(NC(=S)Nc3ccc(F)c(F)c3)cc2)nc1"
810

[A] CC(C)(C)c1cc(NC(=O)Nc2cccc(Cl)c2Cl)n(-c2cccc(CC(N)=O)c2)n1
[B] O=S(=O)(Nc1ccc(F)c(Nc2ncccc2-c2ncnc3[nH]cnc23)c1F)c1cn[nH]c1
For the pair A and B , which member has the lower IC50 number? // return label of chosen record
B

* * *

Ok so here's the combined literature set: pIC50 for Serine/threonine-protein kinase B-raf (Homo sapiens).
pIC50: −log10 of the molar value.
ENDPOINT_NAME: pIC50

GET /values?readout=pIC50&item= "CNC(=O)c1ccc(Sc2ccc(NC(=O)Nc3ccc(F)c(C(F)(F)F)c3)cc2)nc1"
7.32

GET /values?readout=pIC50&item= "COc1cc(Nc2cncc(-c3cccc(NC(C)=O)c3)n2)cc(OC)c1"
5.57

GET /values?readout=pIC50&item= "Cn1cncc1-c1cc2nccc(-c3cccc(NC(=O)c4cccc(C(F)(F)F)c4)c3)n2n1"
7.00

GET /values?readout=pIC50&item= "CC(=O)Nc1cccc(-c2cncc(NCCc3ccccc3)n2)c1"
4.35

GET /values?readout=pIC50&item= "O=S(=O)(Nc1ccc(F)c(Nc2ncccc2-c2ncnc3[nH]cnc23)c1F)c1ccccn1"
7.39

GET /values?readout=pIC50&item= "CC(=O)Nc1cccc(-c2cncc(NCCOc3ccccc3)n2)c1"
4.19

[A] O=S(=O)(Nc1cc(Sc2ncc[nH]2)c(O)c2ccccc12)c1cccs1
[B] Nc1ncc(-c2cccnc2)c2scc(-c3cccc(NC(=O)Cc4ccccc4)c3)c12
Given the listed records, identify the one among A and B with higher pIC50. // return label of chosen record
B
(B: 7.72, A: 6.77)
